Test system: U2OS
Protocol summary: Incucyte cell viability with U2OS; also: unitless GR value; below 1 slowed growth and below 0 cell loss
Type: toxicity, cell-based
Condition details: human, 24 h, 10 µM, compound concentration 10 uM, replicate number 2
Lab note: anything with Growth Rate below 0.8 is marked true (1); values at 0.8 or higher are marked false (0).

Examples with answers:
>>> print(df.to_string())
                                   molecule  assigned_class
0  CN1CCc2cc(Nc3ncc(C(F)(F)F)c(NCc4cc[nH]n4)n3)ccc2C1        true (1)
1  CC(CNS(=O)(=O)C(C)C)c1ccc(-c2ccc(C#N)cc2)cc1 (centres undefined)       false (0)
2  Cc1[nH]nc2ccc(-c3cncc(OCC(N)Cc4c[nH]c5ccccc45)c3)cc12 (centres undefined)        true (1)
3  COc1cc(Cl)c(C(=O)N[C@@H](CN[C@H]2CC[C@@H](N)CC2)Cc2ccc(C#N)cc2)cc1-c1ccc(CN[C@H](C)c2ccc(C)cc2)o1        true (1)
4      N[C@@H](Cn1cc(F)c(=O)[nH]c1=O)C(=O)O       false (0)

input: hey, is Growth Rate for `COc1cc(-c2cc3ncccc3c(O[C@H](C)[C@H]3CNC(=O)C3)n2)cc(OC)c1OC.Cl` lower than 0.8 or not?
output: false (0)

input: Record: `Cl.Cl.N#Cc1ccc(O[C@@H]2c3ccccc3C[C@H]2N2CCC[C@@H](N)C2)c(Cl)c1`
output: false (0)

input: Next record, please: `Cc1cc(S(=O)(=O)N2CC(C)(C)c3cc(-c4ccc(C(F)(F)F)cc4)ccc32)ccc1OCC(=O)O`
output: false (0)

* * *

Answer each item with its documented Growth Rate.
System: U2OS
Protocol summary: Incucyte cell viability with U2OS; also: unitless GR value; below 1 slowed growth and below 0 cell loss
Assay type: toxicity, cell-based
Condition details: human, 0 h, 10 µM, compound concentration 10 uM, replicate number 2
Answers are plain numbers.

The following compounds have reported results that may help.
Compound	Number
Cl.O=C1c2cccc3c2[C@H](CCC3)CN1[C@@H]1CN2CCC1CC2 [PALONOSETRON HYDROCHLORIDE]	-0.79
CCOc1ccccc1C(=O)NCC1(N2CCN(CC)CC2)CCCCC1	-0.99
CC[C@H](CC(=O)O)n1c(=O)c2ncccc2n(Cc2cn(C)c3cc(C)cc(C)c23)c1=O	0.8
Cc1cc(C(C#N)c2ccc(Cl)cc2)c(Cl)cc1NC(=O)c1cc(I)cc(I)c1O (stereo not given)	-1
Cc1ccc2c(NS(=O)(=O)c3ccccc3Cl)cccc2c1Oc1ncccc1-c1ccnc(N[C@H]2CCCNC2)n1.Cl	0.32

Field: Growth Rate. Fill in for each record below.
1. CC(=O)N1CCN([C@H]2CCC[C@@H](NC(=O)c3cc4c(F)ccc(C)c4[nH]3)C2)CC1.O=C(O)C(F)(F)F
2. O=C(O)/C=C/c1ccc(Cn2ccnc2)cc1

output:
0.78
0.65

* * *

Give Growth Rate for every item shown.
System: Fibroblast
Protocol summary: Incucyte cell viability with human fibroblast; also: unitless GR value; below 1 slowed growth and below 0 cell loss
Assay type: toxicity, cell-based
Condition details: 0 h, 10 µM, compound concentration 10 uM, replicate number 2

Batch: Growth Rate for all items listed.
1. Cc1noc(C)c1-c1cnc2c(-c3ccc(C(=O)O)cc3)cn([C@@H](C)c3ccccn3)c2c1
2. CC(C)(C)C(=O)NCc1ccc(Cl)c(C(=O)Nc2ncc[nH]2)c1
3. CC(C)(O)c1ccc2c(c1)ncn2-c1cccc(-c2ccccc2C#N)c1

output:
[-0.82, 0.1, -0.48]
